# target.desc: T1, GRIP1_1, Q9Y3R0
# T1 sequence (Q9Y3R0 48-146, limits assumed, looked up): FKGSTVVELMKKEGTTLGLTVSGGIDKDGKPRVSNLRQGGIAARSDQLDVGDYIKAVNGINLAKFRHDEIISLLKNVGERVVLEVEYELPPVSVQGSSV
# experimental.protocol: holdup assay
# Parameters: key: below the threshold = too weak to quantify, mostly under pKd 3.1 to 4
# assay.context: plain residues with an end cap or a label only (N-terminal biotin on a linker: ttds)

>  <binder>
RSLEEEESQL [GRASP, Q7Z6J2]

>  <pKd>
below the threshold

$$$$
>  <binder>
SRPQRTQTQV [HPV67-E6, A4U7F2]

>  <pKd>
below the threshold

$$$$
>  <binder>
SVWLRKETRV [CYSLTR2, Q9NS75]

>  <pKd>
below the threshold

$$$$
